src = patent US8519149B2

EXPERIMENTAL TARGET: Recombinant human mPGES-1 (Homo sapiens, UniProt O14684)
Sequence (O14684 whole entry): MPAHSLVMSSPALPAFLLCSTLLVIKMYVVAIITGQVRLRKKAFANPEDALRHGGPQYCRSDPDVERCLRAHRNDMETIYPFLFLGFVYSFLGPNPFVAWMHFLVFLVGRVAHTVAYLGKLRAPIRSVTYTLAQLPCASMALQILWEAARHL
EXPERIMENT NOTES: In-vitro mPGES-1 enzyme inhibition assay (PGE2 formation from PGH2, HTRF detection)
Format: biochemical
ASSAY CONDITIONS: 1 μM test compound; recombinant human mPGES-1 microsomal fraction; read-out: Percentage inhibition at 1 μM
OBSERVED PROPERTY: inhibition at 1 µM (%)

Cn1c(Nc2c(Cl)cncc2Cl)nc2cc(C(=O)Nc3ccc(C4CC4)cc3)c3c(c21)CC(C)(C)O3    96.5
COCCn1c(Nc2c(Cl)cccc2Cl)nc2cc(C(=O)Nc3ccc(C(F)(F)F)cc3)c3c(c21)CC(C)(C)O3    95.3
CC1(C)Cc2c(c(C(=O)NC3CCC(F)(F)CC3)cc3nc(Nc4c(Cl)cccc4Cl)[nH]c23)O1    83.1

I. CC1(C)Cc2c(c(C(=O)Nc3cccc(F)c3)cc3nc(Nc4c(F)cccc4Cl)[nH]c23)O1
II. CC1(C)Cc2c(c(C(=O)Nc3ccc(OCC4CC4)nc3)cc3nc(Nc4c(F)cccc4Cl)[nH]c23)O1
III. CC1(C)Cc2c(c(C(=O)NN3CCCC3)cc3nc(Nc4c(Cl)cccc4Cl)[nH]c23)O1
Q: Arrange by inhibition at 1 µM, high to low. Order the labels as requested and give them as your answer.
Result: I, III, II
(I: 96%, III: 63.3%, II: 10.6%)

###

EXPERIMENTAL TARGET: Recombinant human mPGES-1 (Homo sapiens, UniProt O14684)
EXPERIMENT NOTES: In-vitro mPGES-1 enzyme inhibition assay (PGE2 formation from PGH2, HTRF detection)
Type: biochemical
ASSAY CONDITIONS: 1 μM test compound; recombinant human mPGES-1 microsomal fraction; read-out: Percentage inhibition at 1 μM
OBSERVED PROPERTY: inhibition at 1 µM (%)

The following compounds have reported results that may help.
Cc1ccc(Nc2nc3cc(C(=O)Nc4ccc(C(F)(F)F)cc4)c4c(c3[nH]2)CC(C)(C)O4)c(Cl)c1    87.4
CC(NC(=O)c1cc2nc(Nc3c(Cl)cncc3Cl)[nH]c2c2c1OC(C)(C)C2)C1CCCCC1 (stereo not shown)    97.7

I. Cc1cc2c(o1)c(C(=O)NC1CCCCC1)cc1nc(Nc3ccccc3Cl)[nH]c12
II. Cc1ccc(Nc2nc3cc(C(=O)Nc4ccccc4C(F)(F)F)c4c(c3[nH]2)CC(C)(C)O4)c(C)n1
Q: Please let me know which one, I or II , has a lower measured inhibition at 1 µM value. In your reply, give the label of the chosen option.
Result: II

###

EXPERIMENTAL TARGET: Recombinant human mPGES-1 (Homo sapiens, UniProt O14684)
EXPERIMENT NOTES: In-vitro mPGES-1 enzyme inhibition assay (PGE2 formation from PGH2, HTRF detection)
Type: biochemical
ASSAY CONDITIONS: 10 μM test compound; recombinant human mPGES-1 microsomal fraction; read-out: Percentage inhibition at 10 μM
OBSERVED PROPERTY: inhibition at 10 µM (%)

Cc1cccc(Cl)c1Nc1nc2cc(C(=O)Nc3cccc(C(C)(F)F)c3)c3c(c2[nH]1)CC(C)(C)O3    99
Cc1cccc(Cl)c1Nc1nc2cc(C(=O)Nc3cc(C(F)(F)F)ccc3F)c3c(c2[nH]1)CC(C)(C)O3    97.2
CC1(C)CCCC(NC(=O)c2cc3nc(Nc4c(Cl)cncc4Cl)[nH]c3c3c2OC(C)(C)C3)C1 (stereo not shown)    100
Cc1cc2c(o1)c(C(=O)NCCC(C)C)cc1nc(Nc3c(Cl)cncc3Cl)[nH]c12    99.3
Cc1ccc(NC(=O)c2cc3nc(Nc4c(F)cccc4Cl)[nH]c3c3c2OC(C)(C)C3)c(F)c1    94
CC1CC2CC(C1NC(=O)c1cc3nc(Nc4c(Cl)cncc4Cl)[nH]c3c3c1OC(C)(C)C3)C2(C)C (stereo not shown)    96.1
CC1(C)Cc2c(c(C(=O)Nc3ccc(C4CC4)cc3)cc3nc(Nc4c(F)cccc4Cl)[nH]c23)O1    98.9
